Molecular target: UniProt P0DTD1
Assay: biochemical
Settings: Table A, class symbols, read-out: SARS-Cov-2 (IC50)
pIC50: −log10 of the molar value.
READOUT_TYPE: pIC50

CN(C(=O)[C@H](CC1CC1)NC(=O)C(F)(F)F)[C@@H](CC1CC1)C(=O)N1C[C@@]2(C[C@H]1C#N)Oc1cccnc1CNC2=O ... > 7.70
CN(C(=O)[C@H](CC1CC1)NS(=O)(=O)C1(C)CC1)[C@@H](CC1CC1)C(=O)N1C[C@@]2(C[C@H]1C#N)Oc1cccnc1NC2=O ... > 7.70
CN(C(=O)[C@H](CC1CC1)NC(=O)C(F)(F)F)[C@@H](CC1CC1)C(=O)N1C[C@]2(C[C@H]1C#N)C(=O)Nc1ccccc1S2(=O)=O ... 6.70 to 7.70
CN(C(=O)[C@H](CC(F)(F)F)NC(=O)C(F)(F)F)[C@@H](CC1CC1)C(=O)N1C[C@@]2(C[C@H]1C#N)Oc1cccnc1NC2=O ... 6.70 to 7.70
CC(C)C[C@@H](C(=O)N1C[C@@]2(C[C@H]1C#N)Oc1ccccc1NC2=O)N(C)C(=O)[C@H](C)NC(=O)C(F)(F)F ... > 7.70
CN(C(=O)[C@H](CC1CC1)NC(=O)C(F)(F)F)[C@@H](CC1CC1)C(=O)N1C[C@@]2(C[C@H]1C#N)Oc1ccc(F)cc1NC2=O ... > 7.70

----------
Experiment: Cytotoxicity in HeLa cells without addition of OC43 virus (in parallel)
Details: human, HeLa cells, without OC43 virus
# reported CC50 at 6 days; entries follow
READOUT_TYPE: CC50 at 6 days

C[C@@H](NC(=O)C(F)(F)F)C(=O)N(C)[C@@H](CC1CC1)C(=O)N1C[C@@]2(C[C@H]1C#N)Oc1cc(F)cc(F)c1NC2=O ... > 10 µM
CN(C(=O)C(O)c1ccc(F)cc1)[C@@H](CC1CC1)C(=O)N1C[C@@]2(C[C@H]1C#N)Oc1cc(F)cc(F)c1NC2=O (stereo partly drawn) ... > 10 µM
CN(C(=O)c1ccc(=O)[nH]n1)[C@@H](CC1CC1)C(=O)N1C[C@@]2(C[C@H]1C#N)Oc1cccnc1NC2=O ... > 10 µM
CN(C(=O)C(C)(C)NC(=O)C(F)(F)F)[C@@H](CC1CC1)C(=O)N1C[C@@]2(C[C@H]1C#N)Oc1cc(F)cc(F)c1NC2=O ... > 10 µM
CN(C(=O)[C@@H](NC(=O)C(F)(F)F)C1CC1)[C@@H](CC1CC1)C(=O)N1C[C@@]2(C[C@H]1C#N)Oc1cc(F)cc(F)c1NC2=O ... > 10 µM
CN(C(=O)c1cc2cccnc2[nH]1)[C@@H](CC1CC1)C(=O)N1C[C@@]2(C[C@H]1C#N)Oc1cc(F)cc(F)c1NC2=O ... > 10 µM
CC(C)C[C@@H](C(=O)N1C[C@]2(C[C@H]1C#N)C(=O)NCc1nccn12)N(C)C(=O)[C@H](C)NC(=O)C(F)(F)F ... > 10 µM
CC(C)C[C@@H](C(=O)N1C[C@@]2(C[C@H]1C#N)N=C(c1ccccc1)NC2=O)N(C)C(=O)[C@H](C)NC(=O)C(F)(F)F ... > 10 µM
CN(C(=O)[C@H](CC1CC1)NC(=O)C(F)(F)F)C(CC1CC1)C(=O)N1C[C@@]2(C[C@H]1C#N)Oc1cc(S(C)(=O)=O)ccc1NC2=O (stereo in doubt) ... > 10 µM
CN(C(=O)[C@H](CC1CC1)NS(=O)(=O)C1CC1)[C@@H](CC1CC1)C(=O)N1C[C@@]2(C[C@H]1C#N)Oc1ccccc1CNC2=O ... > 10 µM
CC(C)[C@H](NC(=O)C(F)(F)F)C(=O)N(C)[C@@H](CC1CC1)C(=O)N1C[C@@]2(C[C@H]1C#N)Oc1cccnc1NC2=O ... > 10 µM
CN(C(=O)C(O)C(C)(C)C)[C@@H](CC1CC1)C(=O)N1C[C@@]2(C[C@H]1C#N)Oc1cc(F)cc(F)c1NC2=O (stereo partly drawn) ... > 10 µM
CN(C(=O)[C@H](CC1CC1)N1CCOC1=O)[C@@H](CC1CC1)C(=O)N1C[C@@]2(C[C@H]1C#N)Oc1cc(F)cc(F)c1NC2=O ... > 10 µM
C[C@H](NC(=O)C(F)(F)F)C(=O)N(C)[C@@H](CC1CC1)C(=O)N1C[C@@]2(C[C@H]1C#N)Oc1ccccc1CNC2=O ... > 10 µM
CC(C)C[C@](C)(NC(=O)C(F)(F)F)C(=O)N(C)[C@@H](CC1CC1)C(=O)N1C[C@@]2(C[C@H]1C#N)Oc1cc(F)cc(F)c1NC2=O ... > 10 µM
CN(C(=O)[C@H](CC1CC1)NS(=O)(=O)C1CC1)[C@@H](CC1CC1)C(=O)N1C[C@@]2(C[C@H]1C#N)Oc1cccnc1NC2=O ... > 10 µM
CC(C)C[C@@H](C(=O)N1C[C@]2(CCNC2=O)C[C@H]1C#N)N(C)C(=O)[C@H](C)NC(=O)C(F)(F)F ... > 10 µM
CN(C(=O)[C@H](CC1CC1)NC(=O)C(F)(F)F)[C@@H](CC1CC1)C(=O)N1C[C@@]2(C[C@H]1C#N)Oc1cc(F)cnc1NC2=O ... > 10 µM
CN(C(=O)CCN1CCOCC1)[C@@H](CC1CC1)C(=O)N1C[C@@]2(C[C@H]1C#N)Oc1cc(F)cc(F)c1NC2=O ... > 10 µM
CN(C(=O)[C@H](COC(C)(C)C)NC(=O)C(F)(F)F)[C@@H](CC1CC1)C(=O)N1C[C@@]2(C[C@H]1C#N)Oc1cc(F)cc(F)c1NC2=O ... > 10 µM
C[C@H](NC(=O)C(F)(F)F)C(=O)N(C)[C@@H](CC(C)(C)C)C(=O)N1C[C@@]2(C[C@H]1C#N)Oc1cc(F)cc(F)c1NC2=O ... > 10 µM
COC(=O)N[C@@H](C)C(=O)N(C)[C@@H](CC1CC1)C(=O)N1C[C@@]2(C[C@H]1C#N)Oc1cccnc1NC2=O ... > 10 µM
CN(C(=O)[C@H](CC1CC1)NC(=O)C(F)(F)F)[C@@H](CC1CC1)C(=O)N1C[C@@]2(C[C@H]1C#N)Oc1ccccc1C1(CC1)NC2=O ... > 10 µM
CC(C)C[C@@H](C(=O)N1C[C@@]2(C[C@H]1C#N)Oc1cc(F)c(F)cc1NC2=O)N(C)C(=O)[C@H](C)NC(=O)C(F)(F)F ... > 10 µM
